The measurements presented in this section are drawn from patent US12303468B2.

Measurement Description: Solubility of alkanediols in water
Format: physicochemical
Condition Set: visual assessment at ambient temperature after 24 h storage at 5° C.
Readout Type: Maximum solubility in water (% by weight)

Consider the reported Maximum solubility in water for these compounds:
1. CCCCCC(O)C(C)O (stereo not shown)    1.5
2. CCCCCC(O)CO (stereo not shown)    2.5
3. CCCCCCCC(O)CO (stereo not shown)    0.1
4. CCCCCCC(O)C(C)O (stereo not shown)    0.3
5. CCCCCCC(O)CO (stereo not shown) [Hydrolite ® 8]    0.5

a: CCCCC(O)CO (stereo not shown) [Hydrolite ® 6]
b: CCCCC(O)C(C)O (stereo not shown)
In terms of reported Maximum solubility in water, does a or b have the smaller number? Pick one; state its label.
b
(b: 3.6 % by weight, a: 50 % by weight)
